Measured values drawn from the supplement of paper PMC8671470 for this set.

- Test system: MOLM-13
- Procedure Details: cell viability (% survival relative to DMSO control, bortezomib = 0%); higher = less cytotoxic
- Condition Label: 1000 nM; 72 h
Metric: cell viability (%)
Enter your answer as a number in %; do not include the unit.

CN(CCOc1ccc(Cc2sc(O)nc2O)cc1)c1ccccn1 [Rosiglitazone]: 130
Cc1nc(-c2ccccc2)sc1C(=O)Nc1ccc(S(N)(=O)=O)cc1: 106
COc1ccc2c(NC(=O)Nc3cccc(C(F)(F)F)n3)ccnc2c1: 108

# evaluate next
Summary line: O=c1c(-c2ccc(O)cc2)coc2cc(O[C@@H]3O[C@H](CO)[C@@H](O)[C@H](O)[C@H]3O)ccc12 [Daidzin] , MOLM-13, reported cell viability = 99.8
